Tested on: Cavia porcellus
Assay: Ability to prevent PAF-induced bronchoconstriction in guinea pig when administered at a dose of 1 mg/kg intravenously
Type: functional
Settings: route intravenous
MEASURED METRIC: inhibition in vivo at 1 mg/kg (%)
Give just the number in %; leave the unit off.

Previously resolved entries follow.
Write down inhibition in vivo at 1 mg/kg measured for item COc1ccc(/C(C)=C/C=C/C(=O)N[C@H](C)CCCc2cccnc2)cc1 42

Write down inhibition in vivo at 1 mg/kg measured for item CCCCCC(=C/C=C/C(=O)N[C@H](C)CCCc1cccnc1)CCCCC 78

Write down inhibition in vivo at 1 mg/kg measured for item COc1ccc(C(=C/C=C/C(=O)NCCCCc2cccnc2)c2ccc(OC)c(OC)c2)cc1OC 78

Write down inhibition in vivo at 1 mg/kg measured for item COc1cccc(C(=C/C=C/C(=O)NCCCCc2cccnc2)c2cccc(OC)c2)c1 69

Now look at this entry.
Write down inhibition in vivo at 1 mg/kg measured for item COc1ccc(C(=C/C=C/C(=O)NCCCCc2cccnc2)c2ccc(OC)cc2)cc1 92
